B1: Protein S100-G, residues 1 to 79; numbered along this chain, P02633 (parent)
chain: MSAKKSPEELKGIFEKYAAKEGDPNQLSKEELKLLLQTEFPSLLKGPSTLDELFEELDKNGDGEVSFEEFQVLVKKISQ

Variants of: B1
Assay: abundance fitness (aPCA) (normalised: wild type 0, dead -1); higher = more abundant; growth selection in yeast, the domain comes from the species named
Details: Bos taurus
Entries are sorted into classes by abundance fitness as follows: lower range = under -0.2, middle range = from -0.2 up to -0.02, upper range = -0.02 and over

- sequence-code: "MSAMKSPEELKGIFEKYAAKEGDPNQLSKEELKLLLQTEFPSLLKGPSTLDELFEELDKNGDGEVSFEEFQVLVKKISQ [K4M]"
  class: "middle range"
- sequence-code: "MSAKKSPEELKGIFEKYAAKEGDPNQLSKEELKLLLQWEFPSLLKGPSTLDELFEELDKNGDGEVSFEEFQVLVKKISQ [T38W]"
  class: "middle range"
- sequence-code: "MSAKKSPEELKGIFDKYAAKEGDPNQLSKEELKLLLQTEFPSLLKGPSTLDELFEELDKNGDGEVSFEEFQVLVKKISQ [E15D]"
  class: "middle range"
- sequence-code: "MSAKKSPEELKGIFEKYAAKEGDPNQLSKEELKLLLQTEKPSLLKGPSTLDELFEELDKNGDGEVSFEEFQVLVKKISQ [F40K]"
  class: "lower range"
- sequence-code: "MSAKKSPEELKGIFEKYAAKEGDPNQLSKEELKLLLQTEFPSLLKGPSTLDELFEELDKNGDGEVSFEEFQALVKKISQ [V72A]"
  class: "middle range"
- sequence-code: "MSAKKSPEELKGIFEKYAAKEGDPNQLSKEELKLLLQTEFDSLLKGPSTLDELFEELDKNGDGEVSFEEFQVLVKKISQ [P41D]"
  class: "middle range"
- sequence-code: "MSAKKSPEELKGIFEKQAAKEGDPNQLSKEELKLLLQTEFPSLLKGPSTLDELFEELDKNGDGEVSFEEFQVLVKKISQ [Y17Q]"
  class: "lower range"
- sequence-code: "MSAKKSPEELKGIFEKYAAKEGDPNQLSKEELKLLLQTEFPSLLAGPSTLDELFEELDKNGDGEVSFEEFQVLVKKISQ [K45A]"
  class: "lower range"
- sequence-code: "MSAKKSPEELKGIFEKYAAKEGDPNQLSKEELKLLLQTEFPSLLKGPSTLDELFEELTKNGDGEVSFEEFQVLVKKISQ [D58T]"
  class: "upper range"
- sequence-code: "MSAKKSPEELKGIFEKYAAKEGDPNQLSKEELKLLLQTEFPSLLKGPSTLDELFEELDKNGDGEVSFEEFQVLVKKDSQ [I77D]"
  class: "middle range"
- sequence-code: "MSAKKSPEELKGIFEKYAAKEGDPNQLSKEELKLLLQTEFPSLLKGPGTLDELFEELDKNGDGEVSFEEFQVLVKKISQ [S48G]"
  class: "middle range"
- sequence-code: "MSAKKSPEEFKGIFEKYAAKEGDPNQLSKEELKLLLQTEFPSLLKGPSTLDELFEELDKNGDGEVSFEEFQVLVKKISQ [L10F]"
  class: "middle range"
- sequence-code: "YSAKKSPEELKGIFEKYAAKEGDPNQLSKEELKLLLQTEFPSLLKGPSTLDELFEELDKNGDGEVSFEEFQVLVKKISQ [M1Y]"
  class: "lower range"
- sequence-code: "MSAKKSPEELKGIFEKYAAKEGDPNQLSKEELKLLLQTEFPSLLKGPSTLDELFEELDKNGDGEVSFQEFQVLVKKISQ [E68Q]"
  class: "middle range"
- sequence-code: "MSAKKSPEELKGIFEKYAAKEGDPNQLSKEELKLLLQTEFPSLLKSPSTLDELFEELDKNGDGEVSFEEFQVLVKKISQ [G46S]"
  class: "upper range"
- sequence-code: "MSAKKSPEELKGIFEKYAAKEGDPNQLSKEELKLLLQTEFPSLLKGPSTLDELFEELDKNGDGEMSFEEFQVLVKKISQ [V65M]"
  class: "upper range"
- sequence-code: "MSAKKSPEELKGIFEKYAAKEGDCNQLSKEELKLLLQTEFPSLLKGPSTLDELFEELDKNGDGEVSFEEFQVLVKKISQ [P24C]"
  class: "upper range"
- sequence-code: "MSAKKSPEELKGIFEKYAAKEGDPNQLSKEELKLLLQTEFPSLLKGPSTLDELFECLDKNGDGEVSFEEFQVLVKKISQ [E56C]"
  class: "upper range"
- sequence-code: "MSAKKSPEELKGIFEKYAAKEGDPNQLSKEELYLLLQTEFPSLLKGPSTLDELFEELDKNGDGEVSFEEFQVLVKKISQ [K33Y]"
  class: "middle range"
- sequence-code: "MSAKKSPEELKGIFEKYKAKEGDPNQLSKEELKLLLQTEFPSLLKGPSTLDELFEELDKNGDGEVSFEEFQVLVKKISQ [A18K]"
  class: "lower range"
- sequence-code: "MSAKKSPEELKGIFEKYAAKEGDPNQLSKEELKLLDQTEFPSLLKGPSTLDELFEELDKNGDGEVSFEEFQVLVKKISQ [L36D]"
  class: "lower range"
- sequence-code: "MSAKKSPEELKGIFEKYAAKEGDPNQLSKEELKLLLQTEFPSLLKGPSTLDELFEELDKNGDGETSFEEFQVLVKKISQ [V65T]"
  class: "upper range"
- sequence-code: "MSAKKSPEELKGIFEKYAAKEGDPNQLSKEELKLLLQTEFPSLLKGPSTLDELFEELDKNGDGEVSFEEFQVLVKKIAQ [S78A]"
  class: "upper range"
- sequence-code: "MSAKKSPEELKGIFEKYAAKEGDPNQLSKEELKKLLQTEFPSLLKGPSTLDELFEELDKNGDGEVSFEEFQVLVKKISQ [L34K]"
  class: "upper range"
- sequence-code: "MSAKKSPEELKGIFEKYAAKEGDPNQLSKEELKLLLQTEFPSLLKGPSTLDELLEELDKNGDGEVSFEEFQVLVKKISQ [F54L]"
  class: "upper range"
- sequence-code: "MSAKKSPEELKGIFEKYAAKEGDPNQLSKEELKLLLQTRFPSLLKGPSTLDELFEELDKNGDGEVSFEEFQVLVKKISQ [E39R]"
  class: "lower range"
- sequence-code: "MSAKKSPEELKGIFEKYAAKEGDPNQLSKEELKLGLQTEFPSLLKGPSTLDELFEELDKNGDGEVSFEEFQVLVKKISQ [L35G]"
  class: "lower range"
- sequence-code: "MSAKQSPEELKGIFEKYAAKEGDPNQLSKEELKLLLQTEFPSLLKGPSTLDELFEELDKNGDGEVSFEEFQVLVKKISQ [K5Q]"
  class: "lower range"
- sequence-code: "MSAKKSPEELKGIFEKYAAKEGDPNQLSKEELKLLLQTEFPSLLKGWSTLDELFEELDKNGDGEVSFEEFQVLVKKISQ [P47W]"
  class: "upper range"
- sequence-code: "MSAKKSPEELKGIFEKYAAKEGDPNQLSKEELKLLLQTEFPSLLKGPSTLDELFEELDKNGDGEVSFEEFQVLVKKMSQ [I77M]"
  class: "middle range"
- sequence-code: "MSAKKSPEELKGIFEKYAAKEGDPNQLSKEELKLLLQQEFPSLLKGPSTLDELFEELDKNGDGEVSFEEFQVLVKKISQ [T38Q]"
  class: "upper range"
- sequence-code: "MSAKKSPEELKGIFEKYAAKEGDPNQLSKEELKLLLQTEFPSLLKGPSTLDELFEELDKNGDGEVSFEEPQVLVKKISQ [F70P]"
  class: "lower range"
- sequence-code: "MSAKKSPEELKGIFEKYAAKEGDPNQLSKEELKLWLQTEFPSLLKGPSTLDELFEELDKNGDGEVSFEEFQVLVKKISQ [L35W]"
  class: "lower range"
- sequence-code: "MSAKKYPEELKGIFEKYAAKEGDPNQLSKEELKLLLQTEFPSLLKGPSTLDELFEELDKNGDGEVSFEEFQVLVKKISQ [S6Y]"
  class: "lower range"
- sequence-code: "MSDKKSPEELKGIFEKYAAKEGDPNQLSKEELKLLLQTEFPSLLKGPSTLDELFEELDKNGDGEVSFEEFQVLVKKISQ [A3D]"
  class: "upper range"
- sequence-code: "MSAKKSPEELKGIFEKYAAKEGDPNQLSKEELKLLLQTEFPSLLKGPSTLDELFEQLDKNGDGEVSFEEFQVLVKKISQ [E56Q]"
  class: "middle range"
- sequence-code: "ASAKKSPEELKGIFEKYAAKEGDPNQLSKEELKLLLQTEFPSLLKGPSTLDELFEELDKNGDGEVSFEEFQVLVKKISQ [M1A]"
  class: "lower range"
- sequence-code: "MSAKKSPEEIKGIFEKYAAKEGDPNQLSKEELKLLLQTEFPSLLKGPSTLDELFEELDKNGDGEVSFEEFQVLVKKISQ [L10I]"
  class: "middle range"
- sequence-code: "MSAKKSPEELKIIFEKYAAKEGDPNQLSKEELKLLLQTEFPSLLKGPSTLDELFEELDKNGDGEVSFEEFQVLVKKISQ [G12I]"
  class: "upper range"
- sequence-code: "PSAKKSPEELKGIFEKYAAKEGDPNQLSKEELKLLLQTEFPSLLKGPSTLDELFEELDKNGDGEVSFEEFQVLVKKISQ [M1P]"
  class: "lower range"
- sequence-code: "MSAKKSPEELKGIFEKYAAKEGDPNQLSKEELKLLLQTEFPSLLKGPSTLDELFEELDKNGDGEVSFHEFQVLVKKISQ [E68H]"
  class: "upper range"
- sequence-code: "MSAKKSPEELKGIFEKYAAKEGDPNQLSKEELKLLLQTEFPSLLWGPSTLDELFEELDKNGDGEVSFEEFQVLVKKISQ [K45W]"
  class: "upper range"
- sequence-code: "MSAKKSPEELKGIFEKYAAKEGDPNQLSKEELKLLLQTEFPSLLKGPSTLDELFEELDKNGDGEVSFEEFQVSVKKISQ [L73S]"
  class: "middle range"
- sequence-code: "MSAKKSPEELKGIFEKYAAKEGDPNQLSKEELKLLLQTEFPSLLKGPSTLDELFEELDKNGDGEVSFEEGQVLVKKISQ [F70G]"
  class: "lower range"
- sequence-code: "MSAKKSPEELKGIFEKYAAKEGDPNQLSKEELKLLLQTEFPSLLKGPSTLDELFEELDKNGDGEVSFEEFQVLVMKISQ [K75M]"
  class: "middle range"
- sequence-code: "MSAKKSPEELKGIFEKYAAKEGDPNQLSKEELKVLLQTEFPSLLKGPSTLDELFEELDKNGDGEVSFEEFQVLVKKISQ [L34V]"
  class: "middle range"
- sequence-code: "MSAKKSPEELKGIFAKYAAKEGDPNQLSKEELKLLLQTEFPSLLKGPSTLDELFEELDKNGDGEVSFEEFQVLVKKISQ [E15A]"
  class: "middle range"
- sequence-code: "MSAKKSPEELKGIFEKYAAKEGDPNQLSKEELKLLLQTEFPSLLKGPSTLDELFEELDKNGWGEVSFEEFQVLVKKISQ [D62W]"
  class: "middle range"
- sequence-code: "MSAKKSPEELKGIFEKYAAKEGDPNQLSKEELKLLLQTEFPSLLKGPSTLDELFEELDSNGDGEVSFEEFQVLVKKISQ [K59S]"
  class: "upper range"
- sequence-code: "MSAKKSPEELKGIFEKYAAKEGDPNQLSKEELKLLLQTEFPSHLKGPSTLDELFEELDKNGDGEVSFEEFQVLVKKISQ [L43H]"
  class: "middle range"
- sequence-code: "MSAKKSPEELKGIFEKYAAKEGDPNQLSKEELKLLLQTEFPSLLKGPSTLDELFEELDKNGDGEVSFEEFQVNVKKISQ [L73N]"
  class: "lower range"
- sequence-code: "MSAKKSEEELKGIFEKYAAKEGDPNQLSKEELKLLLQTEFPSLLKGPSTLDELFEELDKNGDGEVSFEEFQVLVKKISQ [P7E]"
  class: "upper range"
- sequence-code: "MSAKKSPEELKGIFEKYAAKEGDPNQLSKEELKLLLQTEFPSLLKGPSTLDELFEELDKNGDGEVSFEEHQVLVKKISQ [F70H]"
  class: "lower range"
- sequence-code: "MSAKKSPEEPKGIFEKYAAKEGDPNQLSKEELKLLLQTEFPSLLKGPSTLDELFEELDKNGDGEVSFEEFQVLVKKISQ [L10P]"
  class: "lower range"
- sequence-code: "MSAKKSPEELKGIFEKYAAKEGDPNQLSKEELKLLLQTEFPSLLKGPSTLDELFEEWDKNGDGEVSFEEFQVLVKKISQ [L57W]"
  class: "upper range"
- sequence-code: "MSAKKSPEELKGIFEKYAAKEGDPNQLFKEELKLLLQTEFPSLLKGPSTLDELFEELDKNGDGEVSFEEFQVLVKKISQ [S28F]"
  class: "lower range"
- sequence-code: "MSAKKSPEELKGIFEKYAAKEGDPNQLSKEELKLLLQTEFPSLLKGPSTLDGLFEELDKNGDGEVSFEEFQVLVKKISQ [E52G]"
  class: "upper range"
- sequence-code: "MSAKKSPEELKGIFEKYAAKEGDPNQLSKEELKLLLQTEFPSLLKGPSTLDELFEELDKNGDGEVSFEEFQDLVKKISQ [V72D]"
  class: "middle range"
- sequence-code: "MVAKKSPEELKGIFEKYAAKEGDPNQLSKEELKLLLQTEFPSLLKGPSTLDELFEELDKNGDGEVSFEEFQVLVKKISQ [S2V]"
  class: "upper range"
- sequence-code: "MSAKKSPEELKGIFEKYAAKEGDPNQLSKEELKLLLQTEFPSLLKGPSTLDELFEELDKNGDGEVSFDEFQVLVKKISQ [E68D]"
  class: "upper range"
- sequence-code: "MSAKKSPEELKGEFEKYAAKEGDPNQLSKEELKLLLQTEFPSLLKGPSTLDELFEELDKNGDGEVSFEEFQVLVKKISQ [I13E]"
  class: "lower range"

Data origin: the Human Domainome abundance scans (Beltran et al. 2025)
